Molecular target: human NaV subtype
Sequence (Q15858 whole entry): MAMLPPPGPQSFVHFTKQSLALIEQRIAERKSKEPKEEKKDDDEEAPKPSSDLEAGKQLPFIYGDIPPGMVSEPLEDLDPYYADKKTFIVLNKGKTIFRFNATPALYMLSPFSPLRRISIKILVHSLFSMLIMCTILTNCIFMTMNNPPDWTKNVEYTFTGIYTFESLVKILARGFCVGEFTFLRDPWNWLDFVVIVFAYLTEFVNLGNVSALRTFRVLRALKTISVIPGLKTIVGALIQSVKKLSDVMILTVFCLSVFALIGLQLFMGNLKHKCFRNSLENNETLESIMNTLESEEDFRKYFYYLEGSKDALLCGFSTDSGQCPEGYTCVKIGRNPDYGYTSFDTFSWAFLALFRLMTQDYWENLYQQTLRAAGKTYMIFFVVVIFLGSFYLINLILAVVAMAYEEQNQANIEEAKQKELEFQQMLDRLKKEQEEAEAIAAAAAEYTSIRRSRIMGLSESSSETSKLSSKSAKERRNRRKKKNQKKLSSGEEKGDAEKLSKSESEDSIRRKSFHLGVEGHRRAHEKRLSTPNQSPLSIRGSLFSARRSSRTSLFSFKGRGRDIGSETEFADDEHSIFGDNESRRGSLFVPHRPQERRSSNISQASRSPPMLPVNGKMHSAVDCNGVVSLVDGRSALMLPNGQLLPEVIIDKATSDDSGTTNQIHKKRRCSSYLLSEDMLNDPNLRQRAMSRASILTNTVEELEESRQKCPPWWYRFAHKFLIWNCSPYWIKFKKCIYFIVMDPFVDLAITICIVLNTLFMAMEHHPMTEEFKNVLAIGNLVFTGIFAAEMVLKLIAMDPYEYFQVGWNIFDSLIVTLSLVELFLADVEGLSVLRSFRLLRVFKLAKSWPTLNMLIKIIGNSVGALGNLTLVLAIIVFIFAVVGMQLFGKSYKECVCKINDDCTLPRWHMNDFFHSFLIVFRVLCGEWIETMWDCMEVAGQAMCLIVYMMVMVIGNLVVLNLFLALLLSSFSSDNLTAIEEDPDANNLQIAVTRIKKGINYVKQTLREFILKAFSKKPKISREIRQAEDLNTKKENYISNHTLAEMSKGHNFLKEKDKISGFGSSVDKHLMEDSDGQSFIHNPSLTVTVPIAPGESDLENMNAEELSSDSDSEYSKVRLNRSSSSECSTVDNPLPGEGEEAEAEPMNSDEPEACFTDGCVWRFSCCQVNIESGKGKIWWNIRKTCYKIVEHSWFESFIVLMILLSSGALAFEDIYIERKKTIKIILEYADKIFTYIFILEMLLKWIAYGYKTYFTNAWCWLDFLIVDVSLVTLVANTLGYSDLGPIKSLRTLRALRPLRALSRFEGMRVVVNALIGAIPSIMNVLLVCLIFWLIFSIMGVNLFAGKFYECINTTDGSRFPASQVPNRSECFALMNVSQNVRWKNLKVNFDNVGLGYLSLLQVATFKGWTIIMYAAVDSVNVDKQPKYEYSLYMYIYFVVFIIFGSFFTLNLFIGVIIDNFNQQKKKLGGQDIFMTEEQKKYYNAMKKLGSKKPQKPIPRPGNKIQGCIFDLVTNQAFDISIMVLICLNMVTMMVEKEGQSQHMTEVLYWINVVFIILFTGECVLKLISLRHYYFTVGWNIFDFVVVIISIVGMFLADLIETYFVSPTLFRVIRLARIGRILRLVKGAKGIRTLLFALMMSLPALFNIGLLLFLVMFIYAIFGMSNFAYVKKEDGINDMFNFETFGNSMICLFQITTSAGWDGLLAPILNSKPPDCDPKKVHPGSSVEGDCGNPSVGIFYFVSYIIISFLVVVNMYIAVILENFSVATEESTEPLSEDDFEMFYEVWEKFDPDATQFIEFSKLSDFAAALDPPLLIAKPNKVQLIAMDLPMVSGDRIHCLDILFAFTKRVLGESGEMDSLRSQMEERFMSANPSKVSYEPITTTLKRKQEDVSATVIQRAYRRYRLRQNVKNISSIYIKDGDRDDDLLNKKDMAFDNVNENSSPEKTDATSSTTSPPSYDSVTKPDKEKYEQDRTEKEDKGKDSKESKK
Assay: E-VIPR optical membrane potential assay with electrical stimulation
Conditions: active against one or more sodium channels; assay and NaV subtype not specified for Table 3; read-out: Binned Activity Data (IC50)
From the text: E-VIPR Optical Membrane Potential Assay Method with Electrical Stimulation Sodium channels are voltage-dependent proteins that can be activated by inducing membrane voltage changes by applying electric fields. The electrical stimulation instrument and methods of use are described in Ion Channel Assay Methods PCT/US01/21652, herein incorporated by reference and are referred to as E-VIPR. […] 7) Read Plate on E-VIPR. […]
measuredMetric: IC50

Item COC(=O)C(C)(C)c1ccc(C(=O)N2CCC3(CC2)Oc2ccccc2-c2c3cnn2C)cc1OC : provide IC50 < 2000 nM

Next:
Item COc1cc(C(=O)N2CCC3(CC2)Oc2ccccc2-n2c(C#N)ccc23)ccc1OC[C@@H](O)CO : provide IC50 < 2000 nM

Item N#Cc1ccc2n1-c1ccccc1OC21CCN(C(=O)c2ccc(C(F)(F)F)cc2)CC1 : provide IC50 > 5000 nM

====

Target: human NaV subtype
Test: E-VIPR optical membrane potential assay with electrical stimulation
Conditions: active against one or more sodium channels; assay and NaV subtype not specified for Table 3; read-out: Binned Activity Data (IC50)
Excerpt: E-VIPR Optical Membrane Potential Assay Method with Electrical Stimulation Sodium channels are voltage-dependent proteins that can be activated by inducing membrane voltage changes by applying electric fields. The electrical stimulation instrument and methods of use are described in Ion Channel Assay Methods PCT/US01/21652, herein incorporated by reference and are referred to as E-VIPR. […] 7) Read Plate on E-VIPR. […]
pIC50: −log10 of the molar value.
The entries below are paired with their reported pIC50.

Reference set (2 entries):
Item Cc1cc(C(=O)N2CCC3(CC2)Oc2ccccc2-n2c(C#N)ccc23)ccc1[C@@](C)(O)CO : provide pIC50 > 5.70

Item C[C@](O)(CO)c1ccc(C(=O)N2CCC3(CC2)Oc2ccccc2-n2c(C(F)(F)F)ccc23)cc1 : provide pIC50 > 5.70

Moving on to the next molecule.
Item COc1cc(C(=O)N2CCC3(CC2)Oc2cc(F)ccc2-n2cccc23)ccc1OC[C@H](O)CO : provide pIC50 > 5.70

These entries and their values trace back to patent US20140171427A1.
